Test system: Brain
Test: AUC (0 to infinity) in BALB/c mouse brain at 10 mg/kg, po by LC-MS/MS analysis
Type: ADME, organism-based
Set-up: dose 10 mg/kg, time infinity, route oral
Conditions: in vivo
MEASUREMENT TYPE: AUC (µg·h/g)
Use µg·h/g as the unit, but write only the number.

QUERY: Consider the compound `CC(=O)NC[C@H]1CN(c2cc(F)c(N3CC[Si](C)(C)CC3)c(F)c2)C(=O)O1` . State its measured AUC.
RESULT: 16.44

QUERY: Consider the compound CC(=O)NC[C@H]1CN(c2ccc(N3CCOCC3)c(F)c2)C(=O)O1 [LINEZOLID] . State its measured AUC.
RESULT: 0.9

QUERY: Consider the compound `CC(=O)NC[C@H]1CN(c2ccc(N3CC[Si](C)(C)CC3)c(F)c2)C(=O)O1` . State its measured AUC.
RESULT: 3.05

Now consider the entry below.
QUERY: Consider the compound `COC(=S)NC[C@H]1CN(c2ccc(N3CC[Si](C)(C)CC3)c(F)c2)C(=O)O1` . State its measured AUC.
RESULT: 3.24
